TEST SYSTEM: Indoleamine 2,3-dioxygenase 1 (Homo sapiens, UniProt P14902)
Sequence (P14902 whole entry): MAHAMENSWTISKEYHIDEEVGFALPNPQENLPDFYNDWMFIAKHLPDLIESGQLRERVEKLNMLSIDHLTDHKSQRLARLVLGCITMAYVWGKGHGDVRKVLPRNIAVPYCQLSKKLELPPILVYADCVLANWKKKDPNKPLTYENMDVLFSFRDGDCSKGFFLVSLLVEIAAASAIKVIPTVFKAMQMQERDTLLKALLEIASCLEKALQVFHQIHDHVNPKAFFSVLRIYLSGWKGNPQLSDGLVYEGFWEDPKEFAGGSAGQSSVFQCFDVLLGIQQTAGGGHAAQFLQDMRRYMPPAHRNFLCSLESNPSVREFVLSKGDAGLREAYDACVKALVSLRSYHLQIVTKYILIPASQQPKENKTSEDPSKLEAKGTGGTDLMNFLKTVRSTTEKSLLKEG
MEASUREMENT NOTES: Inhibition of human IDO1 using D-Trp as substrate by absorbance method
PROPERTY NAME: IC50 (nM)
Answers are plain numbers, in nM.

Query: Given O=C(Cc1cccc(N(CCCl)CCCl)c1)NCCNc1nonc1/C(=N/O)Nc1ccc(F)c(Br)c1 , state its recorded IC50.
Result: 130

====

TEST SYSTEM: Indoleamine 2,3-dioxygenase 1 (Homo sapiens)
MEASUREMENT NOTES: Inhibition of human IDO1
PROPERTY NAME: IC50 (nM)
Answers are plain numbers, in nM.

MOL	TEST SYSTEM	IC50 [nM]
O=C1c2nnn(Cc3ccccc3)c2C(=O)c2nnn(Cc3ccccc3)c21	Indoleamine 2,3-dioxygenase 1 (Homo sapiens)	1

Query: Given COC1=C(OC)C(=O)C(Nc2cccc(Br)c2)=CC1=O , state its recorded IC50.
Result: 130

====

TEST SYSTEM: Indoleamine 2,3-dioxygenase 1 (Homo sapiens, UniProt P14902)
MEASUREMENT NOTES: Inhibition of IDO1 in IFN-gamma stimulated human HeLa cells
PROPERTY NAME: IC50 (nM)
Give bare numbers, in nM.

Query: # get_value(readout= IC50, system= Indoleamine 2,3-dioxygenase 1 (Homo sapiens, UniProt P14902)) for Nc1nonc1/C(=N/O)N1Cc2ccccc2C1
Result: 1570

====

TEST SYSTEM: Indoleamine 2,3-dioxygenase 1 (Homo sapiens, UniProt P14902)
MEASUREMENT NOTES: Inhibition of human IDO1 in IFN-stimulated human MDA-MB-231 cells preincubated for 48 hrs followed by L-tryptophan addition and measured after 5 hrs by UV-Vis spectrophotometric method
Type: cell-based
Would you kindly list pEC50 for each of these compounds?
Answers are plain numbers, as −log10 of the molar value.

MOL	PROPERTY NAME	VAL
NS(=O)(=O)NCCNC(=O)c1n[nH]nc1-c1ccc(F)cc1	pEC50	7.13

Field: next compound
Query: # get_value(readout= pEC50, system= Indoleamine 2,3-dioxygenase 1 (Homo sapiens, UniProt P14902)) for NC(=O)c1n[nH]nc1-c1ccc(F)c(F)c1
Result: 7.13

====

TEST SYSTEM: Indoleamine 2,3-dioxygenase 1 (Homo sapiens)
MEASUREMENT NOTES: Inhibition of human N-terminal His-tagged IDO1 expressed in Escherichia coli M15 incubated for 1 hr by UV-Vis spectrophotometric method
PROPERTY NAME: IC50 (nM)
One number for each entry, in nM.

MOL	TEST SYSTEM	RESULT UNITS	VAL
NC(=O)c1n[nH]nc1-c1ccc(F)c(F)c1	Indoleamine 2,3-dioxygenase 1 (Homo sapiens)	nM	110

Query: Given NS(=O)(=O)NCCNC(=O)c1n[nH]nc1-c1ccc(F)cc1 , state its recorded IC50.
Result: 92

====

TEST SYSTEM: Indoleamine 2,3-dioxygenase 1 (Homo sapiens, UniProt P14902)
MEASUREMENT NOTES: Inhibition of IDO1 in IFN-gamma stimulated human HeLa cells centrifuged for 10 mins
PROPERTY NAME: IC50 (nM)
One number for each entry, in nM.

Query: Given CC(C)CN(c1ccc(-c2c(C(=O)O)ccc3ccccc23)cc1NC(=O)Nc1ccc(Br)cc1F)C1CCCCC1 , state its recorded IC50.
Result: 2.6

====

TEST SYSTEM: Indoleamine 2,3-dioxygenase 1 (Homo sapiens)
MEASUREMENT NOTES: Inhibition of human IDO1 incubated for 60 mins using L-tryptophan as substrate by absorbance method
PROPERTY NAME: IC50 (µM)
Answers are plain numbers, in µM.

Query: Given O=C(O)C[C@H]1CNC(=S)c2cc(Br)c(Br)n21 , state its recorded IC50.
Result: 92

All values here come from ChEMBL document CHEMBL4732103.
